Biological target: TDO2 in A172 cancer cells (Homo sapiens)
Construct: endogenous in cells
Sequence (P48775 whole entry): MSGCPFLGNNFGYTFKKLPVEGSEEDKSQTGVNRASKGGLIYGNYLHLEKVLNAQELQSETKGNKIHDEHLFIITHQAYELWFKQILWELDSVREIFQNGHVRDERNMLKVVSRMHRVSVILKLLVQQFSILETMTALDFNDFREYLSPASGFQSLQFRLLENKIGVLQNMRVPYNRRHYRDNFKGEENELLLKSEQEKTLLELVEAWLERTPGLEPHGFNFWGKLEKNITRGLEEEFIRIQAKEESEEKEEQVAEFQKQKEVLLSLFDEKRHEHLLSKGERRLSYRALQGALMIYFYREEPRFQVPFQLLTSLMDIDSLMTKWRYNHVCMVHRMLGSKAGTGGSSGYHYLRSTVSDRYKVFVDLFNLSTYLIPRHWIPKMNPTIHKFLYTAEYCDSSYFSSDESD
Assay: TDO2 Cellular Assay (kynurenine production in A172 cancer cells)
Conditions: L-Trp 1 mM, 24 hours incubation, kynurenine at 490 nm
MEASURED_ENDPOINT: IC50

Some entries whose results are on file:
[
  {
    "MOLECULE": "O=C(N[C@H]1[C@@H]2C[C@@](O)(c3cc(Cl)cc4[nH]ncc34)C[C@@H]21)C1CC1 [Example 76]",
    "EXPERIMENTAL_TARGET": "TDO2 in A172 cancer cells (Homo sapiens)",
    "MEASURED_ENDPOINT": "IC50",
    "RESULT": "≤ 500 nM"
  },
  {
    "MOLECULE": "CS(=O)(=O)N[C@H]1[C@@H]2C[C@@](O)(c3cc(Cl)cc4cn[nH]c34)C[C@@H]21 [Example 109]",
    "EXPERIMENTAL_TARGET": "TDO2 in A172 cancer cells (Homo sapiens)",
    "MEASURED_ENDPOINT": "IC50",
    "RESULT": "500 to 1000 nM"
  },
  {
    "MOLECULE": "CC1(C)C2CN(c3cc(Cl)cc4[nH]ncc34)CC2CN1S(C)(=O)=O (single isomer, unassigned) [Example 1b]",
    "EXPERIMENTAL_TARGET": "TDO2 in A172 cancer cells (Homo sapiens)",
    "MEASURED_ENDPOINT": "IC50",
    "RESULT": "≤ 500 nM"
  },
  {
    "MOLECULE": "O[C@@]1(c2cc(Cl)cc3[nH]ncc23)C[C@H]2CCC[C@H]2C1 [Example 30]",
    "EXPERIMENTAL_TARGET": "TDO2 in A172 cancer cells (Homo sapiens)",
    "MEASURED_ENDPOINT": "IC50",
    "RESULT": "≤ 500 nM"
  },
  {
    "MOLECULE": "CNC(=O)N[C@H]1[C@@H]2C[C@@](O)(c3cc(Cl)cc4[nH]ncc34)C[C@@H]21 [Example 114]",
    "EXPERIMENTAL_TARGET": "TDO2 in A172 cancer cells (Homo sapiens)",
    "MEASURED_ENDPOINT": "IC50",
    "RESULT": "≤ 500 nM"
  }
]

Problem: Please report the recorded IC50 for COC(=O)N[C@H]1[C@@H]2C[C@@](O)(c3cc(Cl)cc4[nH]ncc34)C[C@@H]21 [Example 80] .
Result: ≤ 500 nM

Problem: State the recorded IC50 for this entry: CC(=O)N1C[C@@H]2C[C@@](O)(c3cc(Cl)cc4[nH]ncc34)C[C@@H]2C1 [Example 22]
Result: ≤ 500 nM

Problem: Report IC50 for CS(=O)(=O)N1C[C@@H]2CC(c3cc(Cl)cc4[nH]ncc34)=C[C@@H]2C1 (racemic) [Example 5] please.
Result: ≤ 500 nM

Problem: Recorded IC50 of O=S(=O)(C1CC1)N1C[C@@H]2C[C@@](O)(c3cc(Cl)cc4[nH]ncc34)C[C@@H]2C1 [Example 37] , please.
Result: ≤ 500 nM

Problem: I would be grateful if you could share the reported IC50 for O=C(Nc1ccc(F)cc1)N[C@H]1[C@@H]2C[C@@](O)(c3cc(Cl)cc4[nH]ncc34)C[C@@H]21 [Example 147] .
Result: ≤ 500 nM
